System: pancreatic cancer cells (BxPC3)
Test: In vitro cytotoxicity, CellTiter-Glo 96 h, BxPC3
Settings: Homo sapiens, BXPC-3, read-out: Cytotoxic potency (IC50 class), BxPC3
pIC50: −log10 of the molar value.
Listing: pIC50 of selected compounds

[[record]]
compound = "CC[C@@]1(O)C(=O)OCc2c1cc1n(c2=O)Cc2c-1nc1cc3c(cc1c2CC(C)(C)C)OCO3 [Compound 6n]"
targetofassay = "pancreatic cancer cells (BxPC3)"
result = "8.00 to 9.00"


Task: Answer with reported pIC50 of CC[C@@]1(O)C(=O)OCc2c1cc1n(c2=O)Cc2c-1nc1cc3c(cc1c2CN1CCN(C)CC1)OCO3 [Compound 5h]
Output: 7.00 to 8.00

Task: Give the value of pIC50 reported for the following: CC[C@@]1(O)C(=O)OCc2c1cc1n(c2=O)Cc2c-1nc1cc3c(cc1c2CC(C)C)OCO3 [Compound 6f]
Output: 8.00 to 9.00

Task: Supply recorded pIC50 for CC[C@@]1(O)C(=O)OCc2c1cc1n(c2=O)Cc2c-1nc1cc3c(cc1c2CNCc1ccccc1)OCO3 [Compound 5j] here.
Output: 8.00 to 9.00

Task: Please supply the value of reported pIC50 for the item CC[C@@]1(O)C(=O)OCc2c1cc1n(c2=O)Cc2c-1nc1cc3c(cc1c2CNCCC(c1ccccc1)c1ccccc1)OCO3 [Compound 5o]
Output: 7.00 to 8.00

Task: Give a short answer stating reported pIC50 for CC[C@@]1(O)C(=O)OCc2c1cc1n(c2=O)Cc2c-1nc1cc3c(cc1c2CN1CCOCC1)OCO3 [Compound 5g] .
Output: 8.00 to 9.00

* * *

// reported pIC50 for each item listed
Tested on: Hodgkin's lymphoma cells (L540cy)
Test: In vitro cytotoxicity, CellTiter-Glo 96 h, L540cy
Conditions: read-out: Cytotoxic potency (IC50 class), L540cy
pIC50: −log10 of the molar value.

[[record]]
smilescode = "CCCCNCc1c2c(nc3cc4c(cc13)OCO4)-c1cc3c(c(=O)n1C2)COC(=O)[C@]3(O)CC"
targetofassay = "Hodgkin's lymphoma cells (L540cy)"
observable = "pIC50"
result = "8.00 to 9.00"

[[record]]
smilescode = "CC[C@@]1(O)C(=O)OCc2c1cc1n(c2=O)Cc2c-1nc1cc3c(cc1c2CNC(C)C)OCO3"
targetofassay = "Hodgkin's lymphoma cells (L540cy)"
observable = "pIC50"
result = "8.00 to 9.00"

[[record]]
smilescode = "CC[C@@]1(O)C(=O)OCc2c1cc1n(c2=O)Cc2c-1nc1cc3c(cc1c2CN)OCO3"
targetofassay = "Hodgkin's lymphoma cells (L540cy)"
observable = "pIC50"
result = "8.00 to 9.00"

[[record]]
smilescode = "CC[C@@]1(O)C(=O)OCc2c1cc1n(c2=O)Cc2c-1nc1cc3c(cc1c2CN(C)C(=O)CN)OCO3"
targetofassay = "Hodgkin's lymphoma cells (L540cy)"
observable = "pIC50"
result = "7.00 to 8.00"


Task: Quickly give me recorded pIC50 for CC[C@@]1(O)C(=O)OCc2c1cc1n(c2=O)Cc2c-1nc1cc3c(cc1c2CNCCN(C)CCO)OCO3
Output: 7.00 to 8.00

Task: Identify the reported pIC50 for the following entry. CC[C@@]1(O)C(=O)OCc2c1cc1n(c2=O)Cc2c-1nc1cc3c(cc1c2CNCc1ccc(N)cc1)OCO3
Output: 8.00 to 9.00

* * *

Listed compounds paired with reported pIC50
Tested on: Hodgkin's lymphoma cells (L540cy)
Assay: In vitro cytotoxicity, CellTiter-Glo 96 h, L540cy
Details: read-out: Cytotoxic potency (IC50 class), L540cy
pIC50: −log10 of the molar value.

These recorded examples may help you get a feel for the data.
[[record]]
compound = "CC[C@@]1(O)C(=O)OCc2c1cc1n(c2=O)Cc2c-1nc1cc3c(cc1c2CNc1ccc(F)cc1)OCO3"
observable = "pIC50"
result = "8.00 to 9.00"

[[record]]
compound = "CC[C@@]1(O)C(=O)OCc2c1cc1n(c2=O)Cc2c-1nc1cc3c(cc1c2CN(C)C1CCCC[C@H]1NC)OCO3 (some centres unmarked)"
observable = "pIC50"
result = "7.00 to 8.00"

[[record]]
compound = "CC[C@@]1(O)C(=O)OCc2c1cc1n(c2=O)Cc2c-1nc1cc3c(cc1c2CNCCc1ccccc1)OCO3"
observable = "pIC50"
result = "8.00 to 9.00"

[[record]]
compound = "CC[C@@]1(O)C(=O)OCc2c1cc1n(c2=O)Cc2c-1nc1cc3c(cc1c2CNc1ccccc1)OCO3"
observable = "pIC50"
result = "9.00 to 10.00"

[[record]]
compound = "CC[C@@]1(O)C(=O)OCc2c1cc1n(c2=O)Cc2c-1nc1cc3c(cc1c2CNC12CC4CC(CC(C4)C1)C2)OCO3"
observable = "pIC50"
result = "7.00 to 8.00"

[[record]]
compound = "CC[C@@]1(O)C(=O)OCc2c1cc1n(c2=O)Cc2c-1nc1cc(F)c(C)c3c1c2[C@@H](N)CC3"
observable = "pIC50"
result = "8.00 to 9.00"

[[record]]
compound = "CC[C@@]1(O)C(=O)OCc2c1cc1n(c2=O)Cc2c-1nc1cc3c(cc1c2CNC(=O)[C@@H](N)CCC(=O)O)OCO3"
observable = "pIC50"
result = "6.00 to 7.00"

[[record]]
compound = "CC[C@@]1(O)C(=O)OCc2c1cc1n(c2=O)Cc2c-1nc1cc3c(cc1c2C)OCO3"
observable = "pIC50"
result = "9.00 to 10.00"


Task: State its pIC50: CC[C@@]1(O)C(=O)OCc2c1cc1n(c2=O)Cc2c-1nc1cc3c(cc1c2-c1ccccc1)OCO3
Output: 8.00 to 9.00

Task: State its pIC50: CC[C@@]1(O)C(=O)OCc2c1cc1n(c2=O)Cc2c-1nc1cc3c(cc1c2CN(C)CCN(C)C)OCO3
Output: 8.00 to 9.00

* * *

Measured IC50 accompanies every entry in the list below.
Test system: multiple drug resistant acute promyelocytic leukemia cells (HL-60/RV)
Experiment: In vitro cytotoxicity, CellTiter-Glo 96 h, HL60/RV
Details: Homo sapiens, HL-60, read-out: Cytotoxic potency (IC50 class), HL60/RV

Field: example entries. Status: answers known.
[[record]]
compound = "CCC(C)c1c2c(nc3cc4c(cc13)OCO4)-c1cc3c(c(=O)n1C2)COC(=O)[C@]3(O)CC (some centres unmarked) [Compound 6b]"
observable = "IC50"
result = "1 to 10 nM"

[[record]]
compound = "CC[C@@]1(O)C(=O)OCc2c1cc1n(c2=O)Cc2c-1nc1cc3c(cc1c2CO)OCO3 [Compound 8c]"
observable = "IC50"
result = "1 to 10 nM"

[[record]]
compound = "CC[C@@]1(O)C(=O)OCc2c1cc1n(c2=O)Cc2c-1nc1cc3c(cc1c2C1CCCCCC1)OCO3 [Compound 6j]"
observable = "IC50"
result = "1 to 10 nM"

[[record]]
compound = "CCCc1c2c(nc3cc4c(cc13)OCO4)-c1cc3c(c(=O)n1C2)COC(=O)[C@]3(O)CC [Compound 6a]"
observable = "IC50"
result = "1 to 10 nM"

[[record]]
compound = "CC[C@@]1(O)C(=O)OCc2c1cc1n(c2=O)Cc2c-1nc1cc3c(cc1c2CC(C)(C)C)OCO3 [Compound 6n]"
observable = "IC50"
result = "1 to 10 nM"


Task: Complete the entry with IC50 for CC[C@@]1(O)C(=O)OCc2c1cc1n(c2=O)Cc2cc3cc4c(cc3nc2-1)OCO4 [Compound 6o]
Output: 10 to 100 nM

Task: Note IC50 for the compound shown: CC[C@@]1(O)C(=O)OCc2c1cc1n(c2=O)Cc2c-1nc1cc3c(cc1c2CNC(=O)CO)OCO3 [Compound 4a]
Output: 10 to 100 nM

Task: Supply recorded IC50 for CC[C@@]1(O)C(=O)OCc2c1cc1n(c2=O)Cc2c-1nc1cc3c(cc1c2CNC(C)C)OCO3 [Compound 5c] here.
Output: 1 to 10 nM

Task: Give IC50 for CC[C@@]1(O)C(=O)OCc2c1cc1n(c2=O)Cc2c-1nc1cc3c(cc1c2CNc1ccc(F)cc1)OCO3 [Compound 5r]
Output: 10 to 100 nM

Task: Determine from records and report IC50 for CCCCCc1c2c(nc3cc4c(cc13)OCO4)-c1cc3c(c(=O)n1C2)COC(=O)[C@]3(O)CC [Compound 6h]
Output: 10 to 100 nM

Task: Return the recorded IC50 value; entry: CC[C@@]1(O)C(=O)OCc2c1cc1n(c2=O)Cc2c-1nc1cc3c(cc1c2CNCCc1ccccc1)OCO3 [Compound 5z]
Output: 10 to 100 nM

Task: Answer with the recorded IC50 of CC[C@@]1(O)C(=O)OCc2c1cc1n(c2=O)Cc2c-1nc1cc3c(cc1c2CN(C)C(=O)CN)OCO3 [Compound 4c] only.
Output: 100 to 1000 nM

Task: Give IC50 for CC[C@@]1(O)C(=O)OCc2c1cc1n(c2=O)Cc2c-1nc1cc3c(cc1c2CNCc1ccc(N)cc1)OCO3 [Compound 5e]
Output: 100 to 1000 nM

Task: Write down IC50 measured for item CC[C@@]1(O)C(=O)OCc2c1cc1n(c2=O)Cc2c-1nc1cc3c(cc1c2CC(C)C)OCO3 [Compound 6f]
Output: 1 to 10 nM
